All values here come from PubChem BioAssay (NCATS).

assay: qHTS assay for small molecule disruptors of the mitochondrial membrane potential - 5 hr assay (AID 651755); conditions: JC-1-type ratio dye; series mostly up to 92.2 µM; further: potency means the concentration at half of the fitted maximal effect; nearly all actives have a fitted effect of over 40% in size
Results filed as inconclusive are left out. Activity calls are given as the source filed them. The call rests on the fitted dose curve.
observation type: Potency

Illustrative cases are given below, each with its answer.
O=c1c(-c2ccc(O)cc2)coc2cc(O)ccc12
21.1 µM (active)
O=c1cc(-c2ccc(O)cc2)oc2cc(O)cc(O)c12
5.96 µM (active)
O=c1c(O)c(-c2ccc(O)cc2)oc2cc(O)cc(O)c12
8.41 µM (active)

Q: What measured Potency goes with CC1=C(/C=C/C(C)=C/C=C/C(C)=C/C(=O)Nc2ccc(O)cc2)C(C)(C)CCC1 ?
A: 18.8 µM (active)

Q: What measured Potency goes with O=C(O)c1cc(O)c2c(c1)C(=O)c1cccc(O)c1C2=O ?
A: 5.31 µM (active)

----------
experiment: qHTS drug screen for cell cycle checkpoint inhibitors in PARPi-resistant BRCA-mutant ovarian cancer cell lines. (AID 1963452); conditions: PEO1/OlaR viability, CellTiter-Glo luminescence, 96 h; stronger effect = lower value
Calls of active or inactive are those of the source. Calls come from the whole dose curve.
Readings of Z-AUC for the listed compounds

O=C(NCc1ccncc1)C12C[C@H]3C[C@@H](C1)CC(c1ccc(Cl)cc1)(C3)C2
0.0323 (inactive)
O=c1cc(-c2ccccc2)oc2cc(O)c(O)c(O)c12
0.741 (inactive)
COc1ccc2c(Oc3ccc(NC(=O)c4c(C)n(CC(C)(C)O)n(-c5ccccc5)c4=O)cc3F)ccnc2c1
-0.152 (inactive)
NC(CO)(CO)CCc1ccc(Sc2cccc(OCc3ccccc3)c2)cc1Cl
0.362 (inactive)

Please find the next compound below.
Q: What measured Z-AUC goes with CC(C)(C(=O)NCC(F)(F)C(F)(F)F)C(=O)N[C@@H]1C(=O)Nc2ccccc2-c2ccccc21 ?
A: 0.455 (inactive)

----------
experiment: qHTS drug screen for cell cycle checkpoint inhibitors in PARPi-resistant BRCA-mutant ovarian cancer cell lines. (AID 1963452); conditions: PEO1/OlaR viability, CellTiter-Glo luminescence, 96 h; measured here: PEO1 parental Z-AUC; stronger effect = lower value
Lab note: anything with Z-AUC below 0.9 is marked y; values at 0.9 or higher are marked n.

CCOC(=O)C1=C(N)Oc2ccc(Br)cc2C1C(C#N)C(=O)OCC (stereo not drawn)
n
c1cc(-c2sc(-c3ccncc3)c(-c3ccncc3)c2-c2ccncc2)ccn1
n
CC(C)=CC[C@@H](O)C1=CC(=O)c2c(O)ccc(O)c2C1=O
y
CCn1c(C(=O)N(C2CC2)C2CC2)cc2c3c(ncn3C)c(Nc3cc(C)n(C)n3)nc21
n
CCCCCN(C)CCC(O)(P(=O)(O)O)P(=O)(O)O
n
N#CC1(c2ccc(NC(=O)c3cccnc3NCc3ccncc3)cc2)CCCC1
n
CC1(C)CCC2=C(O1)c1ccccc1C(=O)C2=O
y
N[C@@]1(C(=O)O)CS(=O)(=O)[C@H]2[C@H](C(=O)O)[C@H]21
y
Cc1ccc(/C=N/NC(=O)c2ccccc2Oc2ccccc2)o1
y
CC(=O)N[C@@H](CS)C(=O)O
y

Q: Record O=C1C[C@@H](c2ccc(O)cc2)Oc2cc(O)cc(O)c21 : is its Z-AUC strictly below 0.9?
A: n

Q: Record O=c1c(O)c(-c2ccc(O)cc2)oc2cc(O)cc(O)c12 : is its Z-AUC strictly below 0.9?
A: n

Q: Record NC(=O)c1ccc2nc(-c3ccc(Oc4ccc(Cl)cc4)cc3)[nH]c2c1 : is its Z-AUC strictly below 0.9?
A: y

Q: Record CC1(C)Cc2c(sc(NC(=S)NC(=O)c3ccccc3)c2C(=O)O)CO1 : is its Z-AUC strictly below 0.9?
A: y

Q: Record COc1ccc(-c2nc(N3CCOCC3)c3sc(CN(C)c4ncc(C(=O)NO)cn4)cc3n2)cn1 : is its Z-AUC strictly below 0.9?
A: y

Q: Record CCOC(CN1C(=O)[C@](CC(=O)Nc2ccc(C)cc2)(NC(=O)Nc2ccc(C)cc2)c2ccccc21)OCC : is its Z-AUC strictly below 0.9?
A: n

Q: Record CC(C)C(C)C=CC(C)C1CCC2C3=CC=C4CC(O)CCC4(C)C3CCC21C (stereo not drawn) : is its Z-AUC strictly below 0.9?
A: n

----------
experiment: Cellular Toxicity (caspase-3) HUV-EC-C (AID 656); conditions: HUV-EC-C cells, caspase-3 activation (apoptosis); series mostly up to 92.2 µM;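 further: cells exposed to compound for 16 h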;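 on caspase-3 activation: 0% = DMSO basal and 100% = 100 µM tamoxifen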
Calls of active or inactive are those of the source. The call rests on the fitted dose curve; in most records, active means well fitted curve in the direction sought with a large enough effect; inconclusive means small, poorly fitted or top-dose-only effect, or another doubt; inactive means no such curve, though single readings can be large or run the other way.
Mark one answer only. Choices: YES = active, NO = inactive

The examples below pair each entry with its known result.
CN(C)CCC(c1ccccc1)c1ccccn1 (centres undefined)
NO
O=C(O)c1cc(O)c2c(c1)C(=O)c1cccc(O)c1C2=O
NO

Q: Dear all, I need the recorded test outcome for CC/C(=C(\c1ccccc1)c1ccc(OCCN(C)C)cc1)c1ccccc1 , thank you.
A: YES

Q: Dear all, I need the recorded test outcome for CCn1cc(C(=O)O)c(=O)c2ccc(C)nc21 , thank you.
A: NO

Q: Dear all, I need the recorded test outcome for CCCCC1C(=O)N(c2ccccc2)N(c2ccccc2)C1=O , thank you.
A: NO

Q: Dear all, I need the recorded test outcome for O=c1cc(-c2ccc(O)cc2)oc2cc(O)cc(O)c12 , thank you.
A: NO

Q: Dear all, I need the recorded test outcome for CCCNC(=O)NS(=O)(=O)c1ccc(Cl)cc1 , thank you.
A: NO

Q: Dear all, I need the recorded test outcome for CC1=C(/C=C/C(C)=C/C=C/C(C)=C/C(=O)Nc2ccc(O)cc2)C(C)(C)CCC1 , thank you.
A: YES

Q: Dear all, I need the recorded test outcome for O=C1NC(=O)C(c2ccccc2)(c2ccccc2)N1 , thank you.
A: NO

----------
experiment: Quantitative High-Throughput drug screen in 47 multiple myeloma cell lines against the NCATS MIPE library collection: EJM_DSMZ cell viability assay (AID 1918926; further: nearly all actives have a fitted effect of over 30% in size; further: potency means the concentration at half of the fitted maximal effect); conditions: EJM myeloma cell viability, CellTiter-Glo ATP, 48 h; series mostly up to 45.8 µM
Inconclusive results are not listed. Activity calls are given as the source filed them. The call rests on the fitted dose curve; in most records, active means well fitted cell-killing curve with a large enough effect; inconclusive means small, poorly fitted or top-dose-only effect, or effect the other way; inactive means no such curve, though single readings can be large or run the other way.
observation type: Potency

Illustrative cases are given below, each with its answer.
Cn1cc(C=C2C(=O)Nc3cccnc32)c2ccccc21
inactive
CCc1ccc(C=C2SC(=S)NC2=O)cc1
inactive
C[N+](C)(C)CC(=O)O
inactive
CC(=Cc1ccccc1)C=C1SC(=S)N(CC(=O)O)C1=O
inactive
CC(C)(Cc1ccc2ccccc2c1)NC[C@@H](O)COc1cccc(Cl)c1C#N
inactive
O=C(NCc1ccccc1)c1csc(Nc2ccncn2)n1
18.7 µM (active)
CC[C@H]1OC(=O)[C@H](C)[C@@H](O[C@H]2C[C@@](C)(OC)[C@@H](O)[C@H](C)O2)[C@H](C)[C@@H](O[C@@H]2O[C@H](C)C[C@H](N(C)C)[C@@H]2O)[C@](C)(O)C[C@@H](C)CN(C)[C@H](C)[C@@H](O)[C@]1(C)O
inactive
O=C1C(Cl)=C(NCCN2CCOCC2)C(=O)c2ncccc21
7.43 µM (active)
CC=CC(=O)N(CC)c1ccccc1C
inactive

Please find the next compound below.
Q: What measured Potency goes with Cc1cnc(C(=O)O)c[n+]1[O-] ?
A: inactive

----------
experiment: Quantitative High-Throughput drug screen in 47 multiple myeloma cell lines against the NCATS MIPE library collection: Delta47_JCRB cell viability assay (AID 1918925; further: nearly all actives have a fitted effect of over 45% in size); details: Delta47 myeloma viability, CellTiter-Glo ATP, 48 h; series mostly up to 45.8 µM
Inconclusive results are not listed. Activity calls are given as the source filed them. Calls follow the shape of the dose curve; as a rule, active = well fitted cell-killing curve with a large enough effect; inconclusive = small, poorly fitted or top-dose-only effect, or effect the other way; inactive = no such curve, though single readings can be large or run the other way.
Mark one answer only. Choices: T = active, F = inactive

The examples below pair each entry with its known result.
CCc1ccc(C=C2SC(=S)NC2=O)cc1
F
O=C(NCc1ccncc1)C12C[C@H]3C[C@@H](C1)CC(c1ccc(Cl)cc1)(C3)C2
T
CON=C(C(=O)N[C@@H]1C(=O)N2C(C(=O)OCOC(=O)C(C)(C)C)=C(C=Cc3scnc3C)CS[C@H]12)c1csc(N)n1
F
NC(=O)c1cccc(-c2cc(Nc3ccc(OC(F)(F)F)cc3)ncn2)c1
T
Cc1c[nH]c(C=C2C(=O)Nc3ccccc32)c1CCC(=O)O
F
CCc1ccc(OCc2ccccc2C(=O)Nc2ccc3nc(C)cc(N)c3c2)cc1
T
Cc1ccc(C(C)(O)c2nc3ccccc3s2)c(C)c1 (stereo not drawn)
F
COCCOc1nc(-c2ccc(Cl)c(Cl)c2)n(-c2ccc(NC(=O)CCl)cc2)n1
T
Clc1cc(Cl)cc(CNc2ncncc2-c2ccc3c(c2)OCO3)c1
T
CCNc1cc(NC2CCC(O)CC2)nc(Nc2ccc3c(ccn3Cc3ccccc3)c2)n1 (stereo not drawn)
T

Q: Dear all, I need the recorded test outcome for CC(=Cc1ccccc1)C=C1SC(=S)N(CC(=O)O)C1=O , thank you.
A: F

Q: Dear all, I need the recorded test outcome for COc1cccc(-c2cc(=O)c3ccccc3o2)c1N , thank you.
A: T

Q: Dear all, I need the recorded test outcome for NC(=O)c1ccc2nc(-c3ccc(Oc4ccc(Cl)cc4)cc3)[nH]c2c1 , thank you.
A: T

Q: Dear all, I need the recorded test outcome for Cc1c(O)cccc1C(=O)N[C@@H](CSc1ccccc1)[C@H](O)CN1C[C@H]2CCCC[C@@H]2C[C@@H]1C(=O)NC(C)(C)C , thank you.
A: T

Q: Dear all, I need the recorded test outcome for CC(=O)O[C@]1(C(C)=O)CC[C@@H]2[C@@H]3C[C@H](C)C4=CC(=O)CC[C@]4(C)[C@H]3CC[C@@]21C , thank you.
A: T

Q: Dear all, I need the recorded test outcome for CC=CC[C@@H](C)C(=O)[C@H]1C(=O)N[C@@H](C(C)C)C(=O)N(C)CC(=O)N(C)[C@@H](CC(C)C)C(=O)N[C@@H](C(C)C)C(=O)N(C)[C@@H](CC(C)C)C(=O)N[C@@H](C)C(=O)N[C@H](C)C(=O)N(C)[C@@H](CC(C)C)C(=O)N(C)[C@@H](CC(C)C)C(=O)N(C)[C@@H](C(C)C)C(=O)N1C , thank you.
A: T

Q: Dear all, I need the recorded test outcome for O=C(N[C@@H](c1ccccc1)[C@@H]1CCCCN1)c1cccc(C(F)(F)F)c1Cl , thank you.
A: T

Q: Dear all, I need the recorded test outcome for C=CCc1ccc(O)c(-c2ccc(O)c(CC=C)c2)c1 , thank you.
A: T
